Target: human PPARγ-LBD (Homo sapiens, UniProt P37231)
Construct: PPARγ-LBD (AAs 203–477 in isoform 1); made in house
Sequence (P37231 231-505): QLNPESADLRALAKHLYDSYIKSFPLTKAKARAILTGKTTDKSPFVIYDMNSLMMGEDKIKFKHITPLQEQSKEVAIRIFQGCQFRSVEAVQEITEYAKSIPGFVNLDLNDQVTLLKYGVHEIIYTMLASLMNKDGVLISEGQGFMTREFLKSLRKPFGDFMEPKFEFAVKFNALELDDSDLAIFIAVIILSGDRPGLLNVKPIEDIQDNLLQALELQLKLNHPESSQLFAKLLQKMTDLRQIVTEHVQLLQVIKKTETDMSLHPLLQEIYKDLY
Test: TR-FRET coactivator recruitment assay, PPARγ-LBD
Type: biochemical
Conditions: read-out: PPARγ TRAP220 % of GW1929 max response
property: Emax (%)
State just the number; it will be interpreted in %.

Reference set (3 entries):
>>> resultnumber("O=C(O)CCCc1cc2cc(Cl)ccc2n1S(=O)(=O)c1ccc2ncsc2c1 [Lanifibranor, lanifibranor]")
60.4
>>> resultnumber("CC(C)(Oc1ccc(CCNC(=O)c2ccc(Cl)cc2)cc1)C(=O)O [Bezafibrate, bezafibrate]")
55.7
>>> resultnumber("CSc1ccc(C(=O)/C=C/c2cc(C)c(OC(C)(C)C(=O)O)c(C)c2)cc1 [Elafibranor, elafibranor]")
29

The reported Emax of the molecule CC[C@@H](Oc1cccc(CN(CCCOc2ccc(OC)cc2)c2nc3ccccc3o2)c1)C(=O)O [Pemafibrate, pemafibrate] was 82.5
